- SUBJECT_OF_TEST: factor Xa (Bos taurus)
- Construct: purchased Diagnostic Reagents Ltd, Thame, GB
- TEST_SUMMARY: Determination of the inhibitory constants for factor Xa (chromogenic substrate Moc-D-Nle-Gly-Arg-pNA, Dixon method)
- Type: biochemical, bovine
Structures can show the parent of a compound that is named as a salt.
REPORTED_PROPERTY: selectivity ratio SR (SR = Ki thrombin/Ki factor Xa)

The examples below pair each entry with its known result.
>>> recorded_result("N=C(N)c1ccc(CNC(=O)CNC(=O)[C@@H](CCc2ccc(O)cc2)NS(=O)(=O)Cc2ccc([N+](=O)[O-])cc2)cc1")
165
>>> recorded_result("N=C(N)c1ccc(CNC(=O)CNC(=O)C(CCc2ccncc2)NS(=O)(=O)Cc2ccccc2)cc1 (racemic) [Compound 1, Bzls-D,L-homoAla(4-Pyr)-Gly-4Amba×2 TFA]")
690

(a) CS(=O)(=O)N[C@H](CCc1ccccc1)C(=O)NCC(=O)NCc1ccc(C(=N)N)cc1 [Compound 13]
(b) N=C(N)c1ccc(CNC(=O)[C@H](CCC(=O)O)NC(=O)[C@@H](CCc2ccncc2)NS(=O)(=O)Cc2ccc(N)cc2)cc1 [Compound 26]
Ask: In terms of reported selectivity ratio SR (SR = Ki thrombin/Ki factor Xa), does a or b have the smaller number? Give the label of your selection.
Reply: a

----------
- SUBJECT_OF_TEST: factor Xa (Bos taurus, UniProt P00743)
- Construct: purchased Diagnostic Reagents Ltd, Thame, GB
- Sequence (P00743 234-492 limits assumed): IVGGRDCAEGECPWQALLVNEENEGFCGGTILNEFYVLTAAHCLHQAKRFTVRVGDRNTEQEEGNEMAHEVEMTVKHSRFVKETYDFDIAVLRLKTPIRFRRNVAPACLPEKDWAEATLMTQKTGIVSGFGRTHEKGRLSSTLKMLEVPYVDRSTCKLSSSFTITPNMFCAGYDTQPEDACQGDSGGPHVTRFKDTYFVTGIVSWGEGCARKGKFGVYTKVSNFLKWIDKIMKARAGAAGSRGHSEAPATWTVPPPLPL
- Sequence (P00743 41-180 partner limits assumed): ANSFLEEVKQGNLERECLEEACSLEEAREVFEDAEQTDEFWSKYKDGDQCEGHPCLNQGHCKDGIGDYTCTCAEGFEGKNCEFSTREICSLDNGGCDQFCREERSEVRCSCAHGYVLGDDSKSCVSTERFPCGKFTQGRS
- TEST_SUMMARY: Determination of the inhibitory constants for factor Xa (chromogenic substrate Moc-D-Nle-Gly-Arg-pNA, Dixon method)
- Assay type: biochemical, bovine
- Protocol: Determination of the inhibitory Effect To determine the inhibitory effect, 200 μl of this buffer (0.05 M 0.154 M NaCl, 5% Ethanol, pH 8.0; contains the inhibitor), 25 μl of substrate (Moc-D-Nle-Gly-Arg-pNA in H2O; Pentapharm Ltd., Basle, Switzerland) and 50 μl of factor Xa (bovine, Diagnostic Reagents Ltd, thame, GB) were incubated at 25° C. […] The Thrombin inhibitions was determined in analogy to a method described earlier (Stürzebecher et al., J. Med. Chem. 40, 3091-3099, 1997).
Counter-ions that a name gives are not always drawn.
REPORTED_PROPERTY: selectivity ratio SR (SR = Ki thrombin/Ki factor Xa)

Below: 5 compounds and their reported selectivity ratio SR (SR = Ki thrombin/Ki factor Xa).
>>> recorded_result("N=C(N)c1ccc(CNC(=O)[C@H](CCC(=O)O)NC(=O)[C@@H](CCc2ccc(O)cc2)NS(=O)(=O)Cc2ccc([N+](=O)[O-])cc2)cc1 [Compound 43]")
2000
>>> recorded_result("N=C(N)c1ccc(CNC(=O)[C@H](CO)NC(=O)[C@@H](CCc2ccc(O)cc2)NS(=O)(=O)Cc2ccccc2)cc1 [Compound 6, Bzls-d-homoTyr-Ser-4Amba×TFA]")
74
>>> recorded_result("N=C(N)c1ccc(CNC(=O)CNC(=O)C(CCc2ccncc2)NS(=O)(=O)Cc2ccncc2)cc1 (racemic) [Compound 2]")
246
>>> recorded_result("N=C(N)c1ccc(CNC(=O)CNC(=O)[C@@H](CCc2ccccc2)NS(=O)(=O)Cc2ccccc2)cc1 [Compound 11]")
7.2
>>> recorded_result("N=C(N)c1ccc(CNC(=O)CNC(=O)C(CCc2ccncc2)NS(=O)(=O)Cc2ccc([N+](=O)[O-])cc2)cc1 (stereo not shown) [Compound 31]")
543

(P) CC(C)(C)OC(=O)CC[C@H](NC(=O)[C@@H](CCc1ccc(O)cc1)NS(=O)(=O)Cc1ccc([N+](=O)[O-])cc1)C(=O)NCc1ccc(C(=N)N)cc1 [Compound 54]
(Q) N=C(N)c1ccc(CNC(=O)CNC(=O)C(CCc2cccnc2)NS(=O)(=O)Cc2ccccc2)cc1 (stereo not shown) [Compound 24]
Ask: Looking only at measured selectivity ratio SR (SR = Ki thrombin/Ki factor Xa), which entry is lower, P or Q ? Answer by quoting the chosen item's label.
Reply: P

(I) N=C(N)c1ccc(CNC(=O)CNC(=O)[C@@H](Cc2ccccc2)NS(=O)(=O)Cc2ccccc2)cc1 [Compound 10]
(II) N=C(N)c1ccc(CNC(=O)CNC(=O)[C@@H](CNc2ccncc2)NS(=O)(=O)Cc2ccccc2)cc1 [Compound 23]
Ask: Pick one: I or II . Which has the bigger selectivity ratio SR (SR = Ki thrombin/Ki factor Xa) number? State the label of the item chosen.
Reply: II

(1) N=C(N)c1ccc(CNC(=O)CNC(=O)[C@@H](CCc2ccccc2)NS(=O)(=O)NC2CCCCC2)cc1.O=C(O)C(F)(F)F [Compound 18]
(2) N=C(N)c1ccc(CNC(=O)[C@H](CCCC(=O)O)NC(=O)[C@@H](CCc2ccccc2)NS(=O)(=O)Cc2ccccc2)cc1 [Compound 53]
Ask: Pick one: 1 or 2 . Which has the bigger selectivity ratio SR (SR = Ki thrombin/Ki factor Xa) number? Your answer should be the label attached to the chosen record.
Reply: 1

(P) N=C(N)c1ccc(CNC(=O)[C@H](CO)NC(=O)[C@@H](CCc2ccccc2)NS(=O)(=O)Cc2ccncc2)cc1 [Compound 7, 4-PMs-dhomoPhe-Gly-4Amba×2 TFA]
(Q) N=C(N)c1ccc(CNC(=O)CNC(=O)[C@@H](CCc2ccccc2)NCC(=O)O)cc1 [Compound 64]
Ask: Given the two records P and Q , choose the one whose selectivity ratio SR (SR = Ki thrombin/Ki factor Xa) value is lower. Identify your selection by its label.
Reply: P

----------
- SUBJECT_OF_TEST: factor Xa (Bos taurus, UniProt P00743)
- Construct: purchased Diagnostic Reagents Ltd, Thame, GB
- TEST_SUMMARY: Determination of the inhibitory constants for factor Xa (chromogenic substrate Moc-D-Nle-Gly-Arg-pNA, Dixon method)
- Assay type: biochemical, bovine
- Method: Determination of the inhibitory Effect To determine the inhibitory effect, 200 μl of this buffer (0.05 M 0.154 M NaCl, 5% Ethanol, pH 8.0; contains the inhibitor), 25 μl of substrate (Moc-D-Nle-Gly-Arg-pNA in H2O; Pentapharm Ltd., Basle, Switzerland) and 50 μl of factor Xa (bovine, Diagnostic Reagents Ltd, thame, GB) were incubated at 25° C. […] The Thrombin inhibitions was determined in analogy to a method described earlier (Stürzebecher et al., J. Med. Chem. 40, 3091-3099, 1997).
REPORTED_PROPERTY: selectivity ratio SR (SR = Ki thrombin/Ki factor Xa)

Consider the following illustrative entries.
>>> recorded_result("CC(C)(C)OC(=O)CC[C@H](NC(=O)[C@@H](CCc1ccncc1)NS(=O)(=O)Cc1ccc([N+](=O)[O-])cc1)C(=O)NCc1ccc(C(=N)N)cc1")
87
>>> recorded_result("N=C(N)c1ccc(CNC(=O)CNC(=O)[C@H](CCc2ccccc2)NS(=O)(=O)Cc2ccccc2)cc1")
31
>>> recorded_result("Nc1ccc(CNC(=O)CNC(=O)C(CCc2ccncc2)NS(=O)(=O)Cc2ccccc2)cn1 (stereo not shown)")
833
>>> recorded_result("N=C(N)c1ccc(CNC(=O)[C@H](CCC(=O)O)NC(=O)[C@@H](CCc2ccncc2)NS(=O)(=O)Cc2ccc(O)cc2)cc1")
27778
>>> recorded_result("CS(=O)(=O)N[C@H](CCc1ccccc1)C(=O)NCC(=O)NCc1ccc(C(=N)N)cc1 [Compound 62]")
1.2

(1) N=C(N)c1ccc(CNC(=O)CNC(=O)[C@@H](CCc2ccccc2)NS(=O)(=O)Cc2cccc(N)c2)cc1
(2) COC(=O)c1ccc(CS(=O)(=O)NC(CCc2ccncc2)C(=O)NCC(=O)NCc2ccc(C(=N)N)cc2)cc1 (stereo not shown)
Ask: Hi there, can you help? I need to know whether 1 or 2 has lower measured selectivity ratio SR (SR = Ki thrombin/Ki factor Xa). Your choice should be expressed through its label.
Reply: 1

----------
- SUBJECT_OF_TEST: factor Xa (Bos taurus)
Structures can show the parent of a compound that is named as a salt.
REPORTED_PROPERTY: Ki (nM)

>>> recorded_result("N=C(N)c1ccc(CNC(=O)[C@H](CO)NC(=O)[C@@H](CCc2ccncc2)NS(=O)(=O)Cc2ccccc2)cc1 [Compound 3a, Bzls-D,L-homoAla(4-Pyr)-Ser-4Amba×2 TFA]")
9.4

(a) Nc1ccc(CNC(=O)CNC(=O)C(CCc2ccncc2)NS(=O)(=O)Cc2ccccc2)cn1 (stereo not shown)
(b) CC(C)(C)OC(=O)CN[C@H](CCc1ccccc1)C(=O)NCC(=O)NCc1ccc(C(=N)N)cc1
(c) COC(=O)Cc1ccc(CS(=O)(=O)NC(CCc2ccncc2)C(=O)NCC(=O)NCc2ccc(C(=N)N)cc2)cc1 (stereo not shown)
Ask: List by increasing Ki. // list labels; follow requested order
Reply: c, a, b

----------
In what follows, each item is paired with its Ki for factor Xa (Bos taurus, UniProt P00743).
Structures can show the parent of a compound that is named as a salt.
REPORTED_PROPERTY: Ki (nM)

Known results for compounds:
>>> recorded_result("N=C(N)c1ccc(CNC(=O)CNC(=O)C(CCc2ccncc2)NS(=O)(=O)Cc2ccc(CC(=O)O)cc2)cc1 (stereo not drawn)")
13
>>> recorded_result("N=C(N)c1ccc(CNC(=O)CNC(=O)C(CCc2ccncc2)NS(=O)(=O)Cc2ccccc2)cc1 (racemic) [Compound 1, Bzls-D,L-homoAla(4-Pyr)-Gly-4Amba×2 TFA]")
2.9
>>> recorded_result("N=C(N)c1ccc(CNC(=O)CNC(=O)[C@@H](CCc2ccccc2)NS(=O)(=O)Cc2cccnc2)cc1 [Compound 9, 3-PMs-dhomoPhe-Gly-4Amba×2 TFA]")
62
>>> recorded_result("N=C(N)c1ccc(CNC(=O)CNC(=O)[C@@H](CCc2ccncc2)NS(=O)(=O)Cc2ccccc2)cc1")
2.7

(1) COC(=O)Cc1ccc(CS(=O)(=O)N[C@H](CCc2ccccc2)C(=O)NCC(=O)NCc2ccc(C(=N)N)cc2)cc1
(2) N=C(N)c1ccc(CNC(=O)CNC(=O)C(CCc2ccncc2)NS(=O)(=O)Cc2ccc([N+](=O)[O-])cc2)cc1 (stereo not drawn)
Ask: Sort 1 and 2 by Ki descending and give the first. Bench note: the answer is the label of the chosen record.
Reply: 1
(1: 38 nM, 2: 3.5 nM)
